Target: Dual specificity tyrosine-phosphorylation-regulated kinase 1A (Homo sapiens) (UniProt Q13627)
Assay: Confirmation Assay for Inhibitors of Dyrk1a (Kinase-Glo Assay): KU probe
Settings: Kinase-Glo ATP luminescence; series mostly up to 76.9 µM
Records with an inconclusive call do not appear. Calls of active or inactive are those of the source. Calls follow the shape of the dose curve; as a rule, active = well fitted inhibition curve with a large enough effect; inconclusive = small, poorly fitted or top-dose-only effect; inactive = flat fitted curve, though single readings scatter.
Just give me one of these, please: active, inactive

Ask | What outcome does the record of this test show for Clc1ccc(CNc2nccc(-c3ccc4c(c3)OCO4)n2)cc1Cl ?
Reply | active

Ask | Which outcome was assigned to Clc1cc(Cl)cc(CNc2ccnc(-c3ccc4c(c3)OCO4)n2)c1 in this test?
Reply | inactive

Ask | // return assay outcome for CCCN(C)c1ncnc2ccc(-c3ccc4c(c3)OCO4)cc12
Reply | active

Ask | Recorded test outcome, item c1nc(NCC2CCCC2)c2cc(-c3ccc4c(c3)OCO4)ccc2n1
Reply | active

Ask | # outcome recorded in this test, key = CCCNc1ncnc2ccc(-c3ccc4c(c3)OCO4)cc12
Reply | active

* * *

Biological target: Dual specificity tyrosine-phosphorylation-regulated kinase 1A (Homo sapiens)
Test: Confirmation Assay for Inhibitors of Dyrk1a (Kinase-Glo Assay): KU probe
Conditions: Kinase-Glo ATP luminescence; series mostly up to 76.9 µM
Records with an inconclusive call do not appear. Active and inactive are the calls of the source. The call rests on the fitted dose curve; in most records, active means well fitted inhibition curve with a large enough effect; inconclusive means small, poorly fitted or top-dose-only effect; inactive means flat fitted curve, though single readings scatter.
quantity measured: Potency

>>> observed_measurement("Cc1noc(C)c1-c1nccc(NCc2ccc(Cl)c(Cl)c2)n1")
"inactive"
>>> observed_measurement("Brc1ccc(CNc2ccnc(-c3ccc4c(c3)OCO4)n2)cc1Br")
"inactive"
>>> observed_measurement("CCN(C)c1ncnc2ccc(-c3ccc4c(c3)OCO4)cc12")
"260 nM (active)"
>>> observed_measurement("COc1ccc(-c2nccc(NCc3ccccc3)n2)cc1")
"inactive"
>>> observed_measurement("Clc1ccc(CNc2nccc(-c3ccc4cn[nH]c4c3)n2)cc1Cl")
"412 nM (active)"

# evaluate next
Ask | Would you mind telling me what Potency value was observed for Cc1csc(CN(C)c2ncnc3ccc(-c4ccc5c(c4)OCO5)cc23)n1 ?
Reply | 23.2 nM (active)

* * *

Biological target: Dual specificity tyrosine-phosphorylation-regulated kinase 1A (Homo sapiens)
Test: Confirmation Assay for Inhibitors of Dyrk1a (Kinase-Glo Assay): KU probe
Conditions: Kinase-Glo ATP luminescence; series mostly up to 76.9 µM
Results filed as inconclusive are left out. Active and inactive are the calls of the source. The call rests on the fitted dose curve; in most records, active means well fitted inhibition curve with a large enough effect; inconclusive means small, poorly fitted or top-dose-only effect; inactive means flat fitted curve, though single readings scatter.
In this exercise, the only acceptable responses are active, inactive

Before answering, review these 4 worked examples.
>>> assigned_category("COc1ccc(-c2nccc(NCc3ccc(Cl)cc3)n2)cc1")
"inactive"
>>> assigned_category("Cc1csc(CNc2ncnc3ccc(-c4ccc(CO)o4)cc23)n1")
"active"
>>> assigned_category("c1nc(NCC2CCCOC2)c2cc(-c3ccc4c(c3)OCO4)ccc2n1 (centres undefined)")
"active"
>>> assigned_category("c1cncc(CNc2ncncc2-c2ccc3c(c2)OCO3)c1")
"active"

Ask | Per the assay record, what outcome was assigned to O=C(O)c1ccc(-c2ccc3ncnc(N4CCOCC4)c3c2)o1 ?
Reply | active

Ask | So what was the verdict on Clc1ccc(Nc2nccc(-c3ccc4c(c3)OCO4)n2)cc1 in this test?
Reply | active

Ask | # outcome recorded in this test, key = CN(C)c1ccc(-c2nccc(NCc3ccc(Cl)cc3)n2)cc1
Reply | inactive

Ask | Test call for this compound, please: Clc1ccc(CNc2ccnc(-c3ccc4[nH]ncc4c3)n2)cc1Cl
Reply | active

Ask | Could you please tell me the result logged for COc1ccc(-c2ccnc(NCc3ccc(Cl)c(Cl)c3)n2)cc1 in this assay?
Reply | active

Ask | What is the recorded call for this compound in the test? Cc1ccc(CNc2ccnc(-c3ccc(N(C)C)cc3)n2)cc1
Reply | inactive

Ask | I'd appreciate the recorded outcome for c1nc(NCC2CCCCO2)c2cc(-c3ccc4c(c3)OCO4)ccc2n1 (centres undefined) from this test.
Reply | active

Ask | Could you check what this test reported for COc1ccc(CNc2ccnc(-c3ccc(N(C)C)cc3)n2)cc1 ?
Reply | inactive

Ask | Tell me the assay call for O=C(Nc1ccnc(-c2ccc3c(c2)OCO3)n1)c1ccncn1 please.
Reply | inactive

Ask | Could you check what this test reported for Clc1ccc(CNc2nccc(-c3ccc4c(c3)OCCO4)n2)cc1Cl ?
Reply | active

Ask | Hi, do you know how Clc1ccc(CNc2ncncc2-c2ccc3c(c2)OCO3)cc1 came out in this test?
Reply | active

Ask | How was c1cc(-c2ccoc2)nc(-c2ccoc2)n1 classified in this test?
Reply | active

Ask | For this compound, state the assay outcome: COc1cccc(-c2ccnc(NCc3ccc(Cl)cc3)n2)c1
Reply | active

Ask | State the result this test recorded for c1nc(NCC2CCCCC2)c2cc(-c3ccc4c(c3)OCO4)ccc2n1 .
Reply | active

Ask | Called result for FC(F)(F)c1cc(Br)cc(Nc2nccc(-c3ccc4c(c3)OCO4)n2)c1
Reply | active

Ask | Would you mind telling me which call this test gave c1nc(NCC2CC2)c2cc(-c3ccc4c(c3)OCO4)ccc2n1 ?
Reply | active

Ask | Test call for this compound, please: COc1ccc(-c2ccnc(NCc3ccc(Cl)cc3)n2)cc1
Reply | active

* * *

Target: Dual specificity tyrosine-phosphorylation-regulated kinase 1A (Homo sapiens) (UniProt Q13627)
Assay: Confirmation Assay for Inhibitors of Dyrk1a (Kinase-Glo Assay): KU probe
Conditions: Kinase-Glo ATP luminescence; series mostly up to 76.9 µM
Inconclusive results are not listed. Calls of active or inactive are those of the source. The call rests on the fitted dose curve; in most records, active means well fitted inhibition curve with a large enough effect; inconclusive means small, poorly fitted or top-dose-only effect; inactive means flat fitted curve, though single readings scatter.
Give your call using only these classes: true (1) = active, false (0) = inactive

Examples from the recorded data:
>>> assigned_category("Cc1c(-c2ccnc(NCc3cccnc3)n2)sc(=O)n1C")
"true (1)"
>>> assigned_category("c1cncc(CNc2ccnc(-c3ccc4ccccc4c3)n2)c1")
"true (1)"
>>> assigned_category("CCNC(=O)c1ccc(-c2ccc3ncnc(NCC4CCCO4)c3c2)o1 (stereo not given)")
"true (1)"
>>> assigned_category("CC(C)(C)CNc1ncnc2ccc(-c3ccc(C(=O)O)o3)cc12")
"true (1)"
>>> assigned_category("Brc1ccc(CNc2nccc(-c3ccc4c(c3)OCO4)n2)cc1Br")
"true (1)"

Ask | For c1cncc(CNc2nccc(-c3ccc4[nH]ncc4c3)n2)c1 , which call appears in the assay record?
Reply | true (1)

Ask | Record lookup: outcome of this test for Clc1cc(Cl)cc(CNc2ncncc2-c2ccc3c(c2)OCO3)c1 ?
Reply | true (1)

Ask | For O=C(O)c1ccc(-c2ccc3ncnc(NCC4CCCO4)c3c2)o1 (stereo not given) , what call appears in the results of this test?
Reply | true (1)

* * *

Molecular target: Dual specificity tyrosine-phosphorylation-regulated kinase 1A (Homo sapiens) (UniProt Q13627)
Test: Confirmation Assay for Inhibitors of Dyrk1a (Kinase-Glo Assay): KU probe
Conditions: Kinase-Glo ATP luminescence; series mostly up to 76.9 µM
Inconclusive results are not listed. The source made the active and inactive calls. Calls come from the whole dose curve; as a rule, active = well fitted inhibition curve with a large enough effect; inconclusive = small, poorly fitted or top-dose-only effect; inactive = flat fitted curve, though single readings scatter.
Mark one answer only. Choices: active, inactive

The examples below pair each entry with its known result.
>>> assigned_category("c1nc(NCC2CCOC2)c2cc(-c3ccc4c(c3)OCO4)ccc2n1 (stereo not drawn)")
"active"
>>> assigned_category("c1cncc(CNc2nccc(-c3ccc4c(c3)OCO4)n2)c1")
"active"

Ask | Given N#Cc1cccc(-c2ncccn2)c1 , state the outcome it received in this test.
Reply | inactive

* * *

Target: Dual specificity tyrosine-phosphorylation-regulated kinase 1A (Homo sapiens) (UniProt Q13627)
Assay: Confirmation Assay for Inhibitors of Dyrk1a (Kinase-Glo Assay): KU probe
Conditions: Kinase-Glo ATP luminescence; series mostly up to 76.9 µM
Inconclusive results are not listed. The source made the active and inactive calls. Calls come from the whole dose curve; as a rule, active = well fitted inhibition curve with a large enough effect; inconclusive = small, poorly fitted or top-dose-only effect; inactive = flat fitted curve, though single readings scatter.
Your answer must be one of the following: active, inactive

These recorded examples may help you get a feel for the data.
>>> assigned_category("COc1ccc(CNc2ccnc(-c3c(C)noc3C)n2)cc1")
"inactive"
>>> assigned_category("Clc1ccc(CNc2ncncc2-c2ccc3c(c2)OCO3)cc1Cl")
"active"
>>> assigned_category("c1nc(NC[C@@H]2CCCO2)c2cc(-c3ccc4c(c3)OCO4)ccc2n1")
"active"
>>> assigned_category("FC(F)(F)c1cccc(Nc2nccc(-c3ccc4c(c3)OCO4)n2)c1")
"active"
>>> assigned_category("Brc1cc(Br)cc(CNc2nccc(-c3ccc4c(c3)OCO4)n2)c1")
"active"
>>> assigned_category("CC(C)(C)CNc1ncnc2ccc(-c3ccc4c(c3)OCO4)cc12")
"active"

Continue with the next molecule.
Ask | Lab log entry: Cc1c(-c2ccnc(NCc3ccc(Cl)cc3)n2)sc(=O)n1C — outcome as called in the assay?
Reply | active
